Test system: Human dermal fibroblast (hF)
assay: Cytotoxicity test (cell survival), MTT assay, hF
Format: cell-based
condition.summary: 0.1 mM, 24 hours
As shown below, each of these compounds has a reported Cell survival Avg (%) ± SD (%) value.

# compound, Cell survival Avg (%) ± SD (%)
rows = [
    ("COC(=O)CCC(=O)CN [ALA-1, 5-Aminolevulinic acid methyl ester, reference compound]", "110.44 ± 17.98%"),
    ("NCC(=O)CCC(=O)O [ALA, 5-Aminolevulinic acid]", "125.27 ± 16.1%"),
    ("C=CCCOC(=O)CCC(=O)CN [ALA-3, 5-Aminolevulinic acid 3-butenyl ester]", "115.65 ± 6.85%"),
    ("C=CCCCCOC(=O)CCC(=O)CN [ALA-6, 5-Aminolevulinic acid 5-hexenyl ester]", "92.42 ± 13.86%"),
    ("C=CCCCOC(=O)CCC(=O)CN [ALA-4, 5-Aminolevulinic acid 4-pentenyl ester]", "103.35 ± 14.09%"),
]

====

Test system: Squamous cell carcinoma (A431)
assay: Cytotoxicity test (cell survival), MTT assay, A431
Format: cell-based
condition.summary: A431, 0.01 mM, 24 hours
As shown below, each of these compounds has a reported Cell survival Avg (%) ± SD (%) value.

# compound, Cell survival Avg (%) ± SD (%)
measured = [
    ("C=CCCCCOC(=O)CCC(=O)CN [ALA-6, 5-Aminolevulinic acid 5-hexenyl ester]", 101.04),
    ("COC(=O)CCC(=O)CN [ALA-1, 5-Aminolevulinic acid methyl ester, reference compound]", 101.03),
    ("C=CCCCOC(=O)CCC(=O)CN [ALA-4, 5-Aminolevulinic acid 4-pentenyl ester]", 101.68),
]
